settings: in n-butanol, 320.74 K
Reported property: solubility (mole fraction)

>>> obs_value("c1ccc2ccccc2c1")
0.159

---

details: in n-heptane, 301.37 K
Reported property: solubility (mole fraction)

>>> obs_value("c1ccc2ccccc2c1")
0.0889

---

details: in ethanol, 311.93 K
Reported property: solubility (mole fraction)

>>> obs_value("c1ccc2ccccc2c1")
0.0614

---

settings: in toluene, 327.55 K
Reported property: solubility (mole fraction)

>>> obs_value("c1ccc2ccccc2c1")
0.589

---

settings: in acetone, 319.06 K
Reported property: solubility (mole fraction)

>>> obs_value("c1ccc2ccccc2c1")
0.415

---

conditions: in acetone, 322.7 K
Reported property: solubility (mole fraction)

>>> obs_value("c1ccc2ccccc2c1")
0.459

---

conditions: in ethanol, 335.9 K
Reported property: solubility (mole fraction)

>>> obs_value("c1ccc2ccccc2c1")
0.238

---

details: in ethanol, 315.93 K
Reported property: solubility (mole fraction)

>>> obs_value("c1ccc2ccccc2c1")
0.0703

---

settings: in n-butanol, 340.65 K
Reported property: solubility (mole fraction)

>>> obs_value("c1ccc2ccccc2c1")
0.567

---

settings: in n-butanol, 335.1 K
Reported property: solubility (mole fraction)

>>> obs_value("c1ccc2ccccc2c1")
0.375

---

conditions: in acetone, 297.17 K
Reported property: solubility (mole fraction)

>>> obs_value("c1ccc2ccccc2c1")
0.211

---

settings: in acetone, 314.37 K
Reported property: solubility (mole fraction)

>>> obs_value("c1ccc2ccccc2c1")
0.361
